Biological target: GABA-A receptor; anion channel
Assay: Inhibition of [3H]flunitrazepam binding to rat brain GABA-A benzodiazepine receptor
Property Name: IC50 (nM)
I only need the number, in nM, no unit after it.

Problem: Give the reported value of IC50 for this record: `O=c1cc(-c2ccc(O)c(-c3c(O)cc(O)c4c(=O)cc(-c5ccc(O)cc5)oc34)c2)oc2cc(O)cc(O)c12`
Result: 14.9

###

Biological target: GABA-A receptor; alpha-1/beta-2/gamma-2 (Homo sapiens, UniProt P14867+P18507+P47870)
Sequence (P14867 whole entry): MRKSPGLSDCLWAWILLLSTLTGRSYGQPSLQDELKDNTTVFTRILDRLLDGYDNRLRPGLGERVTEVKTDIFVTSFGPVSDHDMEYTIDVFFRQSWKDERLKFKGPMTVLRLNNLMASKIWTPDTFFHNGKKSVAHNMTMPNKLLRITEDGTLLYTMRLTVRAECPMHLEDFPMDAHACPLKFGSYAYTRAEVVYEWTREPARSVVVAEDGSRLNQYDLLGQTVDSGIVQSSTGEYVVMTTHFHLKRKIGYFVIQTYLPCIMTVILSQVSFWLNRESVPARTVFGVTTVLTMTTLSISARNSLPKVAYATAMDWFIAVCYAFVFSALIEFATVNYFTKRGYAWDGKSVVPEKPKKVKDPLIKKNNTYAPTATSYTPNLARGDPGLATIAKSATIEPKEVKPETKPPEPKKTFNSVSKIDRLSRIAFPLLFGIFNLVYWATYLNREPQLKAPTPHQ
Sequence (P47870 whole entry): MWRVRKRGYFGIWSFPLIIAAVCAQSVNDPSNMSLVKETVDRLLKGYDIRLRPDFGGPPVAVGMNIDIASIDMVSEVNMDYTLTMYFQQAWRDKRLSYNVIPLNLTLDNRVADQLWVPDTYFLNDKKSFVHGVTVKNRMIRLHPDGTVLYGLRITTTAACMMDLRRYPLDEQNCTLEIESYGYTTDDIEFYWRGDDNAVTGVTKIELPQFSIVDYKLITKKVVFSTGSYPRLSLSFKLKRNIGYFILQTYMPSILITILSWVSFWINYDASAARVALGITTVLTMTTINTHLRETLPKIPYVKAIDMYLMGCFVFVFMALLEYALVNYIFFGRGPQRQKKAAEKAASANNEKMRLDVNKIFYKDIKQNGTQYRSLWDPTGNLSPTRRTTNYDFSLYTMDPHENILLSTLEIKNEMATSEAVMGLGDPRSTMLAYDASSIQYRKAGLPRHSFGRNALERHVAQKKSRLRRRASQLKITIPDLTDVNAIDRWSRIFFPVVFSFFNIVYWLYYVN
Sequence (P18507 whole entry): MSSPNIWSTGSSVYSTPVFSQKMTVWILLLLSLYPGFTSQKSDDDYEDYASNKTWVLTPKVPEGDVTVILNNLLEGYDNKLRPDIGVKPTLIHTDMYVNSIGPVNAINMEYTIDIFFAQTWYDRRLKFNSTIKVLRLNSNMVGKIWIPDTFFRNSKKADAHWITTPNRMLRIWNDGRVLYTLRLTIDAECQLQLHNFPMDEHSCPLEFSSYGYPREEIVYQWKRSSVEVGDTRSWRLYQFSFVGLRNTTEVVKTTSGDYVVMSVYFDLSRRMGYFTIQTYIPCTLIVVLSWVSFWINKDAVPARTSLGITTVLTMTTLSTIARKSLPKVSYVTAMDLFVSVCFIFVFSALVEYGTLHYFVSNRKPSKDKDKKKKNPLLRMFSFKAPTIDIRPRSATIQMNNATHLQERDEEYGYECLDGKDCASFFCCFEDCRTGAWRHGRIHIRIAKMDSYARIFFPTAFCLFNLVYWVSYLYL
Assay: Effective concentration against human recombinant GABA-A receptor alpha-1-beta-2-gamma-2 subunits expressed in Xenopus oocytes
Type: cell-based, Oocyte
Property Name: EC50 (µM)
Note: unit µM is implicit; provide only the numeric part.

Problem: Note EC50 for the compound shown: `O=c1cc(-c2ccc(O)c(-c3c(O)cc(O)c4c(=O)cc(-c5ccc(O)cc5)oc34)c2)oc2cc(O)cc(O)c12`
Result: 3.6

###

Molecular target: GABA-A receptor; anion channel
Assay: Binding affinity for human cloned GABA-A benzodiazepine receptor
Format: protein-complex assay
Property Name: pKi
Give only the number. pKi is defined as minus log10 of concentration in molar units.

Problem: Please report pKi for the following compound: O=c1cc(-c2ccc(O)c(-c3c(O)cc(O)c4c(=O)cc(-c5ccc(O)cc5)oc34)c2)oc2cc(O)cc(O)c12 [AMENTOFLAVONE]
Result: 8.22

###

Target: 5-hydroxytryptamine receptor 1D (Sus scrofa, UniProt P79400)
Sequence (P79400 whole entry): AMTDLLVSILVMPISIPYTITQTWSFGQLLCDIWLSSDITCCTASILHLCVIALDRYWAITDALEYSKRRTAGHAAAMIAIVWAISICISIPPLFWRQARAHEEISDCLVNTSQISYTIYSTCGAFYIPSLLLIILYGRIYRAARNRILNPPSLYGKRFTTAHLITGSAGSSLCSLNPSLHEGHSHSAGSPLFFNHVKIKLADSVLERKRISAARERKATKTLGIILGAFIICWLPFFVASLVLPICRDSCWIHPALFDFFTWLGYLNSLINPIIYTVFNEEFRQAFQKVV
Property Name: pKi
Remember, pKi is on a log scale: it is -log10 of the molar concentration.

Problem: Provide pKi, tested on 5-hydroxytryptamine receptor 1D (Sus scrofa, UniProt P79400), for `O=c1cc(-c2ccc(O)c(-c3c(O)cc(O)c4c(=O)cc(-c5ccc(O)cc5)oc34)c2)oc2cc(O)cc(O)c12` .
Result: 5.39

###

Molecular target: Delta-type opioid receptor (Sus scrofa, UniProt P79291)
Sequence (P79291 whole entry): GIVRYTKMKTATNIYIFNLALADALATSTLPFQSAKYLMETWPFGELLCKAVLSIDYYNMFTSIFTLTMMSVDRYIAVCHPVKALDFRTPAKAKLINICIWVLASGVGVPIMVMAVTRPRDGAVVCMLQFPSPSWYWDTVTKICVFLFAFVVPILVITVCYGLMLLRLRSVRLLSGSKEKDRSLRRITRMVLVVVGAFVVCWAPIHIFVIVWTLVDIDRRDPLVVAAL
Test: Binding affinity (in vitro) against Opioid receptor delta 1 using radio-ligand binding assay
Property Name: Ki
Please state the value followed by its unit.

Problem: For the compound `O=c1cc(-c2ccc(O)c(-c3c(O)cc(O)c4c(=O)cc(-c5ccc(O)cc5)oc34)c2)oc2cc(O)cc(O)c12` , report Ki.
Result: 36.5 nM
